# Test system: DMS 114 small cell lung
# test_summary: NCI tumour cell line growth inhibition, 48 h
TGI listing for selected compounds.
readout_label: TGI (µM)

- compound: "C=CCCCCCCCC(O)C1C[C@H](O)C(CCCCC)O1 (some centres not stated)"
  units_label: "µM"
  limit_qualifier: "="
  endpoint_result: 37
- compound: "COc1cc(C)cc2c1[nH]c1ccccc12"
  units_label: "µM"
  limit_qualifier: ">"
  endpoint_result: 25
- compound: "COc1ccc(C(=O)O)c(Br)c1OCc1ccccc1"
  units_label: "µM"
  limit_qualifier: ">"
  endpoint_result: 100
- compound: "C#C[C@]1(O)CCC2C3CCc4cc(Oc5nc(F)nc(-n6c(C)nc7cc8ccccc8cc76)n5)ccc4C3CCC21C (some centres not stated)"
  units_label: "µM"
  limit_qualifier: "="
  endpoint_result: 53.8
- compound: "C1OC1C1CO1 (configuration not stated)"
  units_label: "µM"
  limit_qualifier: ">"
  endpoint_result: 100
- compound: "COC12OCCN(CCO)C1=CC(=O)C1(C)N=NC(C)C12 (configuration not stated)"
  units_label: "µM"
  limit_qualifier: ">"
  endpoint_result: 100
- compound: "O=C(O)COc1ccc(C(=O)/C(SS/C(C(=O)c2ccc(OCC(=O)O)c(Cl)c2Cl)=C2\\C=C(c3ccc(F)cc3)SS2)=C2/C=C(c3ccc(F)cc3)SS2)c(Cl)c1Cl"
  units_label: "µM"
  limit_qualifier: "="
  endpoint_result: 12.7

###

# Test system: OVCAR-8 ovarian
# test_summary: NCI tumour cell line growth inhibition, 48 h
TGI listing for selected compounds.
readout_label: TGI

- compound: "Clc1ccc(Nc2nnc(CNc3ccccc3)c3ccccc23)cc1"
  target_entity: "OVCAR-8 ovarian"
  readout_label: "TGI"
  endpoint_result: "16.8 µM"
- compound: "CC1(C(=O)Nc2ccc3cc4ccccc4cc3c2)CC2(C)CC(C)(C1)C(O)NC2=O (stereo not given)"
  target_entity: "OVCAR-8 ovarian"
  readout_label: "TGI"
  endpoint_result: "> 100 µM"
- compound: "COC(=O)C1(C(=O)OC)CC(=O)c2c(OC(=O)c3cccc(OC)c3C#N)ccc(OC(=O)c3cccc(OC)c3C#N)c2C1"
  target_entity: "OVCAR-8 ovarian"
  readout_label: "TGI"
  endpoint_result: "> 100 µM"
- compound: "CCOC(=O)Cn1c(=O)[nH]c(=O)c2c1ncn2Cc1ccccc1"
  target_entity: "OVCAR-8 ovarian"
  readout_label: "TGI"
  endpoint_result: "> 100 µM"
- compound: "Cn1cc(C2=C(Oc3ccccc3)C(=O)NC2=O)c2ccccc21"
  target_entity: "OVCAR-8 ovarian"
  readout_label: "TGI"
  endpoint_result: "> 25 µM"

###

# System: NCI-H460 lung
# test_summary: NCI tumour cell line growth inhibition, 48 h
TGI listing for selected molecules.
readout_label: TGI

- molecule: "O=C(O)COc1ccc(C(=O)/C(SS/C(C(=O)c2ccc(OCC(=O)O)c(Cl)c2Cl)=C2\\C=C(c3ccc(F)cc3)SS2)=C2/C=C(c3ccc(F)cc3)SS2)c(Cl)c1Cl"
  endpoint_result: "49.1 µM"
- molecule: "O=C(CC(=O)N1N=C(N2c3ccccc3Sc3ccccc32)CC1c1ccccc1)Nc1ccccc1Cl (centres undefined)"
  endpoint_result: "> 100 µM"
- molecule: "CCOc1ccccc1N1C(=O)C(=O)C(c2nc3ccccc3s2)C(=O)C1=O"
  endpoint_result: "> 100 µM"
- molecule: "CC(OC(C)(C)C)[C@H](NC(=O)OCc1ccccc1)C(=O)NC(OCc1ccccc1)[C@H]1COC(C)(C)O1 (some centres undefined)"
  endpoint_result: "> 10 µM"
- molecule: "Nc1ccc(Cc2ccc(N=Cc3ccc(OCc4cccc(COc5ccc(C=Nc6ccc(Cc7ccc(N)cc7)cc6)cc5)n4)cc3)cc2)cc1"
  endpoint_result: "> 100 µM"
- molecule: "C=C1c2nc3ccccc3n2C=C(c2ccc(OC)cc2)N1c1ccccc1"
  endpoint_result: "> 34.5 µM"
- molecule: "Cc1cc(C)nc(Sc2c([N+](=O)[O-])ncn2C)n1"
  endpoint_result: "> 100 µM"
- molecule: "COC(=O)C1(C(=O)OC)CC(=O)c2c(OC(=O)c3cccc(OC)c3C#N)ccc(OC(=O)c3cccc(OC)c3C#N)c2C1"
  endpoint_result: "> 100 µM"
- molecule: "N#Cc1c2c(c(Nc3ccc(F)cc3)n3c1nc1ccccc13)CCCC2"
  endpoint_result: "> 100 µM"
- molecule: "COc1cc(/C=C2\\C[C@H]3[C@@H]4CC=C5C[C@@H](OC(C)=O)CC[C@]5(C)[C@H]4CC[C@]3(C)\\C2=N\\O)cc(OC)c1OC"
  endpoint_result: "> 100 µM"
- molecule: "O=C(/C=C/c1cccs1)c1ccc(Cl)cc1Cl"
  endpoint_result: "37.1 µM"
- molecule: "CC(=O)OCC1OC(n2c3c(cc(C#N)c2=O)CCCCCC3)C(OC(C)=O)C(OC(C)=O)C1OC(C)=O (centres undefined)"
  endpoint_result: "> 100 µM"
- molecule: "C/C(=C1\\SC(=NCc2cccs2)NC1=O)c1ccc2ncccc2c1"
  endpoint_result: "> 25 µM"
- molecule: "CC(C)(Oc1ccc(Cl)cc1)C(=O)N(C(=O)N1CCN(c2ccccc2)CC1)c1ccccc1"
  endpoint_result: "> 100 µM"
- molecule: "N#Cc1c(-c2ccc(Cl)cc2)cc(-c2ccc(Nc3ccnc4cc(Cl)ccc34)cc2)nc1N"
  endpoint_result: "> 100 µM"
- molecule: "Cc1nn(-c2ccccc2)c2nc3c(c(C)nn3-c3ccccc3)c(-c3ccc(C(F)(F)F)cc3)c12"
  endpoint_result: "> 100 µM"
- molecule: "CSc1nc(N)cc(Oc2ccc(-c3nc(Nc4cccc(C(F)(F)F)c4)n[nH]3)cc2)n1"
  endpoint_result: "3.03 µM"
- molecule: "CCN(CC)CCCNc1[nH]ncc2cc3c(nc4ccc(OC)cc43)c(C)c12"
  endpoint_result: "17 µM"
- molecule: "COc1ccc(C(=O)NCCC2=CCCCC2)cc1"
  endpoint_result: "> 100 µM"

###

# System: U251 CNS
# test_summary: NCI tumour cell line growth inhibition, 48 h
TGI listing for selected compounds.
readout_label: TGI

- compound: "COc1cccc(/C(COc2ccc3c(c2)oc(=O)c2ccccc23)=N\\O)c1"
  readout_label: "TGI"
  endpoint_result: "> 100 µM"
- compound: "CC(=O)OCC1OC(n2c3c(cc(C#N)c2=O)CCCCCC3)C(OC(C)=O)C(OC(C)=O)C1OC(C)=O (stereo unspecified)"
  readout_label: "TGI"
  endpoint_result: "> 100 µM"
- compound: "CCN(CC)c1ccc(/C=N/NC(=O)c2ccc(S(C)(=O)=O)cc2)c(O)c1"
  readout_label: "TGI"
  endpoint_result: "> 41 µM"
- compound: "O=[N+]([O-])/C(C(Cl)=C(Cl)Cl)=C1\\NCCS1"
  readout_label: "TGI"
  endpoint_result: "> 100 µM"
- compound: "COc1cc(C)cc2c1[nH]c1ccccc12"
  readout_label: "TGI"
  endpoint_result: "> 25 µM"
- compound: "COc1ccc2c(c1)OCCCN(C)OC2c1ccccc1 (stereo unspecified)"
  readout_label: "TGI"
  endpoint_result: "> 100 µM"

###

# System: LOX IMVI melanoma
# test_summary: NCI tumour cell line growth inhibition, 48 h; in the data active = GI50 below about 0.43 µM; inactive = the rest
Possible outcomes: active, inactive

- compound: "CSc1nc(N)cc(Oc2ccc(-c3nc(Nc4cccc(C(F)(F)F)c4)n[nH]3)cc2)n1"
  target_entity: "LOX IMVI melanoma"
  label: "inactive"
- compound: "Cc1ncc(C(=O)Nc2ccc(CN3CCN(C)CC3)c(C(F)(F)F)c2)cc1C#Cc1c(N)ncc2ccc(F)cc12"
  target_entity: "LOX IMVI melanoma"
  label: "active"
- compound: "O=C(OCc1nc2nc(Cl)nc(N3CCOCC3)c2[nH]1)n1ccnc1"
  target_entity: "LOX IMVI melanoma"
  label: "inactive"
- compound: "C/C(=C1\\SC(=NCc2cccs2)NC1=O)c1ccc2ncccc2c1"
  target_entity: "LOX IMVI melanoma"
  label: "inactive"
- compound: "COc1cc(-c2cc(/C=C3\\C(=O)Nc4cc(Cl)ccc43)[nH]n2)cc(OC)c1OC"
  target_entity: "LOX IMVI melanoma"
  label: "inactive"
- compound: "C[C@H]1CCC/C=C/[C@@H]2C[C@H](O)C[C@H]2[C@H](O)[C@@H](S(=O)C[C@@H](N)C(=O)O)CC(=O)O1 (some centres not stated)"
  target_entity: "LOX IMVI melanoma"
  label: "active"
- compound: "Cc1c2c(nn1-c1ccc(S/N=C3\\SCC(=O)CN3Cc3ccccc3)cc1)-c1ccccc1CC2"
  target_entity: "LOX IMVI melanoma"
  label: "inactive"

###

TGI listing for selected compounds.
# Tested on: SF-295 CNS
# test_summary: NCI tumour cell line growth inhibition, 48 h
readout_label: TGI

- compound: "CS(=O)(=O)CCN(CC#N)Cc1ccc(-c2ccc3ncnc(Nc4ccc(OCc5cccc(F)c5)c(Cl)c4)c3c2)o1"
  readout_label: "TGI"
  endpoint_result: "> 25 µM"
- compound: "CC(=O)CC(=O)Nc1ccccc1[N+](=O)[O-]"
  readout_label: "TGI"
  endpoint_result: "> 100 µM"
- compound: "COc1cc2c(cc1OC)C(C#N)(Cc1ccccc1)N(C(=O)c1ccccc1)C=C2 (stereo not given)"
  readout_label: "TGI"
  endpoint_result: "> 100 µM"
- compound: "O=S(=O)(O)c1cc(N=Nc2cccc3ccccc23)c(O)c2ncccc12"
  readout_label: "TGI"
  endpoint_result: "> 100 µM"
- compound: "O=C(NCc1ccccc1)c1cc2ccc(O)c(O)c2cn1"
  readout_label: "TGI"
  endpoint_result: "31.5 µM"
